# assayExplanation: BSK_CASM3C_Proliferation: Cell Proliferation Assessment in the BioMAP Diversity Plus: CASM3C Assay (AID 2283047);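 also: sulforhodamine B total protein stain as relative cell number at 560 nm; sub-confluent cells exposed 48 h before staining; fitted both ways against DMSO so gain or loss of cell number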
# measurementContext: primary human coronary artery smooth muscle cells
Active and inactive are the calls of the source. The calls were made as follows: active = hit-call score of the fitted dose curve at least 0.9, where 1 is the maximum; inactive = score below 0.9.
Output constraint: value belongs to active, inactive

Input: Kindly provide the recorded test outcome for the following compound: CN1C(=O)N(c2ccccc2Br)Cc2cnc(Nc3ccc4c(c3)OCC(CO)O4)nc21 (configuration not stated)
Output: active

Input: Query CN(C)c1ccc(C(=C2C=CC(=[N+](C)C)C=C2)c2ccc(N(C)C)cc2)cc1 next
Output: active

Input: Query NCc1cccc(C2CCN(C(=O)c3ccc(C#Cc4ccccc4F)o3)CC2)c1 next
Output: active

Input: Query C[C@]12CC[C@@H]3c4ccc(O)cc4CC[C@H]3[C@@H]1CC[C@H]2O next
Output: active

Input: Query CN(C[C@@H](CC[N+]12CCC(C3CCCCC3)(CC1)CC2)c1ccc(Cl)c(Cl)c1)C(=O)c1cc(C(F)(F)F)cc(C(F)(F)F)c1 next
Output: active

Input: Query Cc1ccc2oc(CN(Cc3ccccc3)C(=O)Nc3c(F)cc(F)cc3F)c(-c3ccc(Cl)cc3)c2c1 next
Output: inactive

Input: Query Cc1ncc(CO)c(CO)c1O next
Output: inactive

Input: Query C[C@]12CC[C@@H]3c4ccc(O)cc4CC[C@H]3[C@@H]1CCC2=O next
Output: inactive

Input: Query O=C1c2ccccc2C(=O)N1CCc1noc(-c2ccc(CN3CCCCCC3)s2)n1 next
Output: inactive

Input: Query O=c1c(-c2ccc(O)cc2)coc2cc(O)cc(O)c12 next
Output: active

Input: Query COc1cccc([C@H](O)C2CCN(CCc3ccc(F)cc3)CC2)c1OC next
Output: inactive

Input: Query CCCOC(=O)c1cc(O)c(O)c(O)c1 next
Output: active

Input: Query CCCCCc1ccc(N)cc1 next
Output: inactive

Input: Query CCCC(=O)OCCC(C)C next
Output: inactive

Input: Query Clc1ccccc1C(c1ccccc1)(c1ccccc1)n1ccnc1 next
Output: active

Input: Query O=C(OCCCCCCOC(=O)c1ccccc1)c1ccccc1 next
Output: inactive

Input: Query CCN(Cc1cccc(S(=O)(=O)O)c1)c1ccc(C(=C2C=CC(=[N+](CC)Cc3cccc(S(=O)(=O)O)c3)C=C2)c2ccccc2S(=O)(=O)[O-])cc1 next
Output: inactive

Input: Query CC1=CC(=O)/C(=C(/C)O)C(=O)O1 next
Output: inactive

Input: Query Cc1c2ccccc2c(C)c2c1ccc1ccccc12 next
Output: active

Input: Query CC(=O)N1CCN(c2ccc(OC[C@H]3CO[C@](Cn4ccnc4)(c4ccc(Cl)cc4Cl)O3)cc2)CC1 next
Output: active

Input: Query O=C(O)c1ccccc1-n1cc(C(=O)O)c(=O)c2cc(Nc3c(F)cc(F)cc3Cl)c(Cl)cc21 next
Output: inactive

Input: Query COCC(C)OCC(C)OCC(C)O (configuration not stated) next
Output: inactive

Input: Query CCOC(=O)O[C@H](C)OC(=O)c1ccc2c(c1)cc(C(=O)NC1CCN(C(C)C)CC1)n2Cc1cc(-c2ccc(Cl)s2)on1 next
Output: active

Input: Query OCCO next
Output: inactive

Input: Query CC/C(=C(/CC)c1ccc(O)cc1)c1ccc(O)cc1 next
Output: active

Input: Query c1ccc(C[n+]2cccc3ccccc32)cc1 next
Output: inactive

Input: Query Cc1cccc2ccccc12 next
Output: inactive

Input: Query CCCCCCCCCCCC[N+](C)(C)C next
Output: active

Input: Query NC(=O)c1nc(-c2cccc(-c3cc(F)ccc3OCC(F)(F)C(F)(F)F)c2)n[nH]1 next
Output: active

Input: Query CCO[Si](CCCNC(N)=O)(OCC)OCC next
Output: inactive

Input: Query Oc1ccc2ccccc2c1 next
Output: inactive

Input: Query CCCCOC(=O)CC(CC(=O)OCCCC)(OC(C)=O)C(=O)OCCCC next
Output: inactive

Input: Query CN(C)C(=O)C1(N2CCCCC2)CCN(CC[C@@]2(c3ccc(Cl)c(Cl)c3)CN(C(=O)c3ccccc3)CCO2)CC1 next
Output: active

Input: Query Oc1ccccc1 next
Output: inactive

Input: Query O=C(Nc1ccc(Cl)cc1)Nc1ccc(Cl)c(Cl)c1 next
Output: active

Input: Query c1ccc2n[nH]nc2c1 next
Output: inactive

Input: Query Cc1ccc(C(C)C)cc1 next
Output: inactive

Input: Query CN1C(=O)CC[C@H]1c1cccnc1 next
Output: inactive

Input: Query CO[C@H]1/C=C/O[C@@]2(C)Oc3c(C)c(O)c4c(O)c(c(/C=N/N5CCN(C)CC5)c(O)c4c3C2=O)NC(=O)/C(C)=C\C=C\[C@H](C)[C@H](O)[C@@H](C)[C@@H](O)[C@@H](C)[C@H](OC(C)=O)[C@@H]1C next
Output: active

Input: Query CCCCCCCCN(C)CCCCCCCC next
Output: inactive

Input: Query CC(O)CC(C)(C)O (configuration not stated) next
Output: inactive

Input: Query CCCCCCCCCCCO next
Output: active
